Just for reference, ChEMBL document CHEMBL1201862 is where these values come from.

Record form. Attribute: GI50. Fill in for each entry.
Test system: LOX IMVI
Test: NCI tumour cell line growth inhibition, 48 h
Activity calls are given as the source filed them. No stated cut-off is given here; in the data, active = GI50 up to about 1.1 µM and inactive = higher.

Would you kindly share the measured GI50 for COC(=O)/C(=N\N)C(C(=O)C(=O)Nc1nnc(S)[nH]1)c1nc2ccc([N+](=O)[O-])cc2nc1O (stereo unspecified) ?
> 100 µM (inactive)

Would you kindly share the measured GI50 for "NS(=O)(=O)OCCCCCCCOS(N)(=O)=O" ?
161 µM (inactive)

Would you kindly share the measured GI50 for "CCCCOCn1c(=O)[nH]c(=O)c2cc(Br)ccc21" ?
58.5 µM (inactive)

Would you kindly share the measured GI50 for "CC1(C)[C@@H](Cn2cc(I)c(=O)[nH]c2=O)CC[C@@]1(C)CO" ?
> 100 µM (inactive)

Would you kindly share the measured GI50 for COc1c(O)c(O)cc2c1-c1ccc(OC)c(=O)cc1C(NC(C)=O)CC2 (stereo unspecified) ?
4.84 µM (inactive)

Would you kindly share the measured GI50 for "Cc1cn([C@@H]2O[C@H](CO[Si](C)(C)C(C)(C)C)[C@]3(O[C@H]3C(=O)NN)[C@H]2O[Si](C)(C)C(C)(C)C)c(=O)[nH]c1=O" ?
3.33 µM (inactive)

---

Test system: RXF 393
Assay: NCI tumour cell line growth inhibition, 48 h
The source made the active and inactive calls. No stated cut-off is given here; in the data, active = GI50 up to about 1.1 µM and inactive = higher.
Return exactly one item of active, inactive

Call for entry CC(NC(=O)c1ccccc1)NC(=O)C(C)C(=O)Nc1ccccc1 (centres undefined) :
inactive

Call for entry CN(C)C(=O)C(F)(F)C(c1ccccc1)C1C(=O)N(C)C(=O)N(C)C1=O (centres undefined) :
inactive

Call for entry "CSc1nc(C)c2c(n1)N(c1ccc(Cl)cc1)CC2" :
inactive

Call for entry "CCNCC(=O)O[C@]1(CC)C(=O)OCc2c1cc1n(c2=O)Cc2cc3ccccc3nc2-1" :
active

---

System: LXFL 529
Test: NCI tumour cell line growth inhibition, 48 h
Calls of active or inactive are those of the source. Rule as the data show it: active = GI50 up to about 1.1 µM and inactive = higher.
Record form. Attribute: GI50. Fill in for each entry.

Would you kindly share the measured GI50 for CC(=O)OC1CC2C(C)(C)C(=O)C=C[C@]2(C)C2CCC3(C)C(=CC(=O)C3c3ccoc3)[C@]12C (some centres undefined) ?
24 µM (inactive)

Would you kindly share the measured GI50 for Cc1ccc(NC(=O)C(=O)C(C(=O)/C=C/c2ccccc2)C2OC(=O)c3ccccc32)c(C)c1 (centres undefined) ?
> 100 µM (inactive)

Would you kindly share the measured GI50 for N#CC(C(=O)/C(=N\NC(N)=O)C(C#N)c1ccccc1)c1ccccc1 (centres undefined) ?
> 100 µM (inactive)

Would you kindly share the measured GI50 for CCCN(CCCC(NC(C)=O)C(=O)NCc1ccccc1)C(=O)NCCCl (centres undefined) ?
> 100 µM (inactive)

Would you kindly share the measured GI50 for "CC1(c2ccc[n+](Cc3ccccc3)c2)OCCO1" ?
> 100 µM (inactive)

Would you kindly share the measured GI50 for "O=C1/C(=C/c2cccc([N+](=O)[O-])c2)COc2ccc(Br)cc21" ?
> 100 µM (inactive)

Would you kindly share the measured GI50 for "CCOC(=O)c1ccn2c(c1)c(C#N)c1nc3ccccc3nc12" ?
31.6 µM (inactive)

Would you kindly share the measured GI50 for CCCCCCCCCC1CC(=O)OC23CCCC(=O)C12O3 (centres undefined) ?
> 100 µM (inactive)

Would you kindly share the measured GI50 for O=C(Nc1nnc(S)[nH]1)C(=O)C1C(=O)Nc2ccccc2[S+]1[O-] (centres undefined) ?
> 100 µM (inactive)

Would you kindly share the measured GI50 for "Cc1[nH]c(=O)nc(N/N=C/c2ccc(O)cc2)c1C(=O)Nc1ccc(Cl)cc1" ?
> 100 µM (inactive)

Would you kindly share the measured GI50 for Cc1ccc(C(=O)C(C)N)cc1C (centres undefined) ?
> 100 µM (inactive)

Would you kindly share the measured GI50 for "COc1ccccc1/C=C(\NC(=O)c1ccccc1)c1nc2ccc(Cl)cc2[nH]1" ?
21.1 µM (inactive)

Would you kindly share the measured GI50 for "N#CCCN(CCC#N)c1ccc(/C=C(/NC(=O)c2cc([N+](=O)[O-])ccc2Cl)C(=O)N=[N+]=[N-])cc1" ?
> 100 µM (inactive)

Would you kindly share the measured GI50 for COCC1N=C(c2cc(OC)c(OC)c(OC)c2-c2cc3c(cc2[C@H](C)O)OCO3)O[C@H]1c1ccccc1 (some centres undefined) ?
37.7 µM (inactive)

Would you kindly share the measured GI50 for O=C(C(O)c1cn(Cc2ccccc2)c2ccccc12)N1CCCCC1 (centres undefined) ?
79.6 µM (inactive)

Would you kindly share the measured GI50 for "COc1cc2c(c3oc(-c4ccc5c(c4)OCO5)c(O)c(=O)c13)CCC(C)(C)O2" ?
22.9 µM (inactive)

Would you kindly share the measured GI50 for CCOC(=O)C1=C(OC(OCC)C(C)[Se]c2ccccc2)CCC1 (centres undefined) ?
14.3 µM (inactive)

Would you kindly share the measured GI50 for O=[N+]([O-])c1ccc(C2CC(c3ccccc3Cl)=Nc3ccccc3S2)cc1 (centres undefined) ?
2.84 µM (inactive)

Would you kindly share the measured GI50 for "N=C1SCCS1" ?
> 100 µM (inactive)

---

Test system: CCRF-CEM
Test: NCI tumour cell line growth inhibition, 48 h
The source made the active and inactive calls. Cut-off read from the data, not from the text of the source: active = GI50 up to about 1.1 µM and inactive = higher.
Return exactly one item of active, inactive

Call for entry "Clc1ccc(CSC2=NCCN2)cc1Cl" :
inactive

Call for entry COCC(=O)OC1CCn2c1nc1c2C(=O)C(C)=C(NC(C)=O)C1=N (configuration not stated) :
inactive

Call for entry CC1(O)CC23CC(O)C4(O)C(CC(O)C4(C)C)C(C)(O)C2CCC1C3O (configuration not stated) :
inactive

Call for entry "Clc1ccc2c(NCCNC3CCCCC3)ccnc2c1" :
inactive

Call for entry "COc1ccc2cc(/C=N\NC(=O)Nc3ccc([N+](=O)[O-])cc3)ccc2c1" :
inactive

Call for entry "CO[C@@H]1C=C[C@@]23c4cc5c(cc4C(=O)O[C@H]2CN(C)[C@H]3C1)OCO5" :
inactive

Call for entry "COc1cc2c(c(OC)c1OC)-c1ccc(SC)c(=O)cc1[C@@H](NCc1cccc([N+](=O)[O-])c1)CC2" :
active

Call for entry "Cc1ccc(/N=N/c2c(C)nn(C(=O)CC(=O)Nc3ccc(Cl)cc3)c2C)cc1C" :
inactive

Call for entry "COc1ccc(OC)c(CSc2ccc(OC)c(OC)c2)c1" :
inactive

Call for entry COc1cc2c(cc1OC)C(O)[C@H](Br)C(C)(C)O2 (some centres not stated) :
inactive

Call for entry "CCCc1nc(Cl)nc(Cl)c1Cl" :
active

Call for entry Cc1cc(-c2nc3cc(F)ccc3s2)ccc1NC(=O)C(C)N (configuration not stated) :
active

Call for entry COc1ccc(NC2CC(C)N(C(=O)c3ccccc3)O2)cc1 (configuration not stated) :
inactive

Call for entry "Cc1nc2ccccc2n1Cc1ccc(NC(=S)NC2CCCCC2)cc1" :
inactive

Call for entry "[N-]=[N+]=NC1=C(C(=O)c2ccccc2)C(=O)c2cccc3cccc1c23" :
inactive

Call for entry "Cc1ccc(N)cc1.O=S(=O)(O)/C(=C\c1ccccc1)c1ccccc1" :
inactive

Call for entry "O=C1N=C2Sc3ccc4ccccc4c3N2C1=O" :
inactive

---

Record form. Attribute: GI50. Fill in for each entry.
Tested on: A498
Test: NCI tumour cell line growth inhibition, 48 h
Activity calls are given as the source filed them. Rule as the data show it: active = GI50 up to about 1.1 µM and inactive = higher. Non-standard residues stand in square brackets, D forms with d. Residues, ends and D or L forms follow the SMILES beside them. ΔPro = O=C(O)[CH]1C=CCN1

Would you kindly share the measured GI50 for "N=C(N)SCc1cccc([N+](=O)[O-])c1" ?
25.1 µM (inactive)

Would you kindly share the measured GI50 for "Cc1ccccc1/N=N/C(C(=O)c1ccccc1)C(=O)c1ccccc1" ?
39 µM (inactive)

Would you kindly share the measured GI50 for O=C(O)C1C=CCN1C(=O)C1C=CCN1C(=O)C1C=CCN1 (stereo not drawn) (H-[ΔPro]-[ΔPro]-[ΔPro]-OH; configuration not given here) ?
> 100 µM (inactive)

Would you kindly share the measured GI50 for "Cc1c(/C=N/NC(=S)Nc2ccc(Cl)cc2)c(=O)n(-c2ccccc2)n1C" ?
22.5 µM (inactive)

Would you kindly share the measured GI50 for "C1=N\c2ccc(cc2)/N=C\c2ccc(cc2)OCc2cccc(n2)COc2ccc/1cc2" ?
> 100 µM (inactive)

Would you kindly share the measured GI50 for "CC(=O)O[C@@H]1[C@H](C(C)C)[C@@H](OC(C)=O)C/C(C)=C/CC[C@]2(C)O[C@@H]12" ?
> 100 µM (inactive)

Would you kindly share the measured GI50 for "O=Cc1c2c(cc3c1CC1(C3)Cc3cc4c(c(C=O)c3C1)CCCC4)CCCC2" ?
> 10 µM (inactive)

Would you kindly share the measured GI50 for NC(CCC(=O)NC(CSC(=O)N(O)c1ccc(Br)cc1)C(=O)NCC(=O)O)C(=O)O (stereo not drawn) ?
> 100 µM (inactive)

Would you kindly share the measured GI50 for O=C(C(O)c1cn(Cc2ccccc2)c2ccccc12)N1CCCCC1 (stereo not drawn) ?
> 100 µM (inactive)

Would you kindly share the measured GI50 for COc1cc2c(cc1OC)C(CC(=O)NN=C(C)C)NCC2 (stereo not drawn) ?
> 100 µM (inactive)

Would you kindly share the measured GI50 for "O=C(/C=C/c1ccc([N+](=O)[O-])cc1)c1nc2ccccc2[nH]1" ?
1.73 µM (inactive)

Would you kindly share the measured GI50 for OC1(c2ccc3ccccc3c2)c2ccc3ccccc3c2C2=NCCN21 (stereo not drawn) ?
> 100 µM (inactive)

Would you kindly share the measured GI50 for "CN(CCNC(=O)c1cn(C)c2c1ccc1cc(Cl)ccc12)CCNC(=O)c1cn(C)c2c1ccc1cc(Cl)ccc12" ?
3.71 µM (inactive)

Would you kindly share the measured GI50 for "CN(C)Cc1c[nH]c2ncnc(O)c12" ?
> 100 µM (inactive)

Would you kindly share the measured GI50 for NC(CSC1c2ccccc2-c2ccccc21)C(=O)O (stereo not drawn) ?
> 100 µM (inactive)

Would you kindly share the measured GI50 for CCCCCCCCCCCCCCCCCCOCC(O)CO (stereo not drawn) [BATILOL] ?
3.61 µM (inactive)

Would you kindly share the measured GI50 for "N/C(=N\c1ccccc1)c1ccccc1N" ?
> 100 µM (inactive)

Would you kindly share the measured GI50 for "CCCCOCn1c(=O)[nH]c(=O)c2cc(Br)ccc21" ?
54.6 µM (inactive)

Would you kindly share the measured GI50 for COc1ccc(C2=Nc3cc(C)c(C)cc3NC(c3ccccc3)C2)cc1 (stereo not drawn) ?
> 100 µM (inactive)

Would you kindly share the measured GI50 for "O=C(Cc1cc[n+]([O-])cc1)C(=O)Nc1cc(Cl)c(Cl)cc1Cl" ?
> 100 µM (inactive)

Would you kindly share the measured GI50 for "O=c1ss/c(=N\c2ccccc2)n1-c1ccccc1" ?
> 100 µM (inactive)

Would you kindly share the measured GI50 for "NS(=O)(=O)OCCCCCCCOS(N)(=O)=O" ?
377 µM (inactive)

Would you kindly share the measured GI50 for CC(=O)OC1CC2C(C)(C)C(=O)C=C[C@]2(C)C2CCC3(C)C(=CC(=O)C3c3ccoc3)[C@]12C (stereo partly drawn) ?
16.9 µM (inactive)

Would you kindly share the measured GI50 for "C(=N\c1cc2cc(Sc3ccccc3)ccc2[nH]1)/c1ccccc1" ?
1.83 µM (inactive)

Would you kindly share the measured GI50 for CC1(C(=O)O)CCC[C@@]2(C)C1CC[C@@]1(C)c3cocc3CCC21 (stereo partly drawn) ?
> 100 µM (inactive)

Would you kindly share the measured GI50 for "NC(=O)c1cccc([N+](=O)[O-])c1" ?
> 100 µM (inactive)

Would you kindly share the measured GI50 for "CCC(=O)Oc1c2ccsc2c(OC(=O)CC)c2ccsc12" ?
3.1 µM (inactive)

Would you kindly share the measured GI50 for CC1(O)CC23CC(O)C4(O)C(CC(O)C4(C)C)C(C)(O)C2CCC1C3O (stereo not drawn) ?
> 100 µM (inactive)
